All values here come from ChEMBL document CHEMBL4673245.

Entries annotated with measured IC50
# measurement_target: Estrogen receptor (Homo sapiens, UniProt P03372)
# Sequence (P03372 whole entry): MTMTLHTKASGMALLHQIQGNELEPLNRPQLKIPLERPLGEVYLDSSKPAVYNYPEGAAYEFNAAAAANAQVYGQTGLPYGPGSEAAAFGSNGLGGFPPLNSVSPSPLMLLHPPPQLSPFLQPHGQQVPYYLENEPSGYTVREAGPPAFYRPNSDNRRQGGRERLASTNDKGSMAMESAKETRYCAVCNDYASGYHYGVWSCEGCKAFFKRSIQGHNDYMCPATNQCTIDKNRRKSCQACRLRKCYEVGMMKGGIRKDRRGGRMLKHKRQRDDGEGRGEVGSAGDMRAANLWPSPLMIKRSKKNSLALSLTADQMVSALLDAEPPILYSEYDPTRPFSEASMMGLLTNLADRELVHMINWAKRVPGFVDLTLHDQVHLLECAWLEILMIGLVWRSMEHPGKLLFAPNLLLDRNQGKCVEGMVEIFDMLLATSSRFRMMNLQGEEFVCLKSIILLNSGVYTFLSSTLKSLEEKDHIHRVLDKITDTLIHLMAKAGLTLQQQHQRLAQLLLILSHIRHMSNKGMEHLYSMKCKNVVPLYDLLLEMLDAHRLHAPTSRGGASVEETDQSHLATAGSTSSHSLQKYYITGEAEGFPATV
# assay: Induction of ERalpha degradation in human MCF7 cells assessed as decrease in ER-alpha level incubated for 18 to 24 hrs by Alexa fluor 488/Hoechst staining based immunofluorescence imaging analysis
# Assay type: cell-based
Report only the number, with the unit nM understood.

# example entries with known answers
> print(dat)
                            chemical.smiles  obs.value
1  COc1cc(NC2CN(CCCF)C2)ccc1[C@@H]1c2ccc3[nH]ncc3c2C[C@@H](C)N1CC(F)(F)F     0.0631
2  C[C@@H]1Cc2c(ccc3[nH]ncc23)[C@@H](c2ccc(NC3(C)CN(CCCF)C3)cn2)N1CC(F)(F)F       3.16

For record `C[C@@H]1Cc2c(ccc3[nH]ncc23)[C@@H](c2ccc(N(C)C3CN(CCCF)C3)cn2)N1CC(F)(F)F` the listed IC50 is 0.2

Notebook: `COc1cc(NC2CN(CCCF)C2)ccc1[C@@H]1c2ccc3[nH]ncc3c2C[C@@H](C)N1CC(C)(C)F` , IC50 read as 0.2

The recorded IC50 for entry `C[C@@H]1Cc2c(ccc3[nH]ncc23)[C@@H](c2ccc(OCCN3CC(CF)C3)cn2)N1CC1(F)CC1` equals 0.398

Note to self: IC50 recorded for `COc1cc(NC2CN(CCCF)C2)ccc1[C@@H]1c2ccc3[nH]ncc3c2C[C@@H](C)N1CC(C)(F)F` was 0.0398

Record `C[C@@H]1Cc2c(ccc3[nH]ncc23)[C@@H](c2ccc(NC3CN(CCCF)C3)cn2)N1CC1(F)CC1` . Reported IC50: 0.631

GET /value?item= `COc1cc(NC2CN(CCCF)C2)ccc1[C@@H]1c2ccc3[nH]ncc3c2C[C@@H](C)N1CC(F)F` &field=IC50 returns 0.1

IC50 reading for `C[C@@H]1Cc2c(ccc3[nH]ncc23)[C@@H](c2ccc(NCCNCCCF)cn2)N1CC1(F)CC1` : 1

// recorded IC50 for `C[C@@H]1Cc2c(ccc3[nH]ncc23)[C@@H](c2ccc(OCCN3CC(CF)C3)cn2)N1CC(F)(F)F` : 0.398

# compound `COc1cc(NC2CN(CCCF)C2)ccc1[C@@H]1c2ccc3[nH]ncc3c2C[C@@H](C)N1CC1(F)CC1` ; its IC50 = 0.316

Form field IC50, entry `C[C@@H]1Cc2c(ccc3[nH]ccc23)[C@@H](c2ccc(NC3CN(CCCF)C3)cn2)N1CC(F)(F)F` : 0.158

IC50 in this record for `C[C@@H]1Cc2c(ccc3[nH]ncc23)[C@@H](c2c(F)cc(OCCN3CC(CF)C3)cc2F)N1CC(C)(C)F` : 0.126
